- Measurement notes: Plasma protein binding in cynomolgus monkey assessed as unbound fraction
- Format: ADME, cell-free, Macaca fascicularis
Measurement name: fraction unbound

INSERT INTO measurements (molecule_smiles, test_result) VALUES
  ('[2H]C([2H])([2H])NC1=NC(=O)[C@]2(CCc3ncccc32)c2cc(C(C)(F)F)ccc21', 0.519),
  ('[2H]C([2H])([2H])NC1=NC(=O)[C@]2(CCc3ncccc32)c2cc(C(F)(F)F)ccc21', 0.562);

###

- Measurement notes: Dissociation constant, pKa of compound
- Assay type: physicochemical
Measurement name: pKa

INSERT INTO measurements (molecule_smiles, test_result) VALUES
  ('[2H]C([2H])([2H])NC1=NC(=O)[C@]2(CCc3ncccc32)c2cc(C(F)(F)F)ccc21', 4.7),
  ('[2H]C([2H])([2H])NC1=NC(=O)[C@]2(CCc3ncccc32)c2cc(C(C)(F)F)ccc21', 4.9);
